- Tested on: Plasmodium berghei (Pb-Luc) exoerythrocytic-stage parasites
- stated conditions: first series; concentration 0.0137174; fraction of control
Values of normalized signal at concentration 0.0137174 strictly less than 0.9 map to 1.0, and values of at least 0.9 map to 0.0.

## Input Threshold test, normalized signal at concentration 0.0137174 < 0.9: CCc1csc(N2[C@H](CO)[C@H](c3ccccc3)[C@@H]2CNC)n1
## Output 1.0

## Input normalized signal at concentration 0.0137174 strictly < 0.9 for this compound? COc1ccc(S(=O)(=O)N(C)C[C@H]2Oc3ccc(NC(=O)Cc4cn(C)c5ccccc45)cc3C(=O)N([C@H](C)CO)C[C@@H]2C)cc1
## Output 1.0

## Input State whether 0.9 exceeds normalized signal at concentration 0.0137174 recorded for C[C@@H]1CCCCO[C@@H](CN(C)S(=O)(=O)c2ccc(F)cc2)[C@@H](C)CN([C@H](C)CO)C(=O)c2cc(N(C)C)ccc2O1 .
## Output 1.0

More entries:
## Input # strict comparison: is reported normalized signal at concentration 0.0137174 < 0.9? input = C[C@H]1CN([C@@H](C)CO)C(=O)c2cc(C#Cc3ccccc3)cnc2O[C@H]1CN(C)C(=O)c1ccccc1
## Output 0.0

## Input Item COCC(=O)N1C[C@H](C)[C@@H](OC)CN(C)C(=O)c2ccc(NC(=O)Nc3cccc(F)c3)cc2OC[C@@H]1C : normalized signal at concentration 0.0137174 beneath 0.9, strictly?
## Output 0.0
